Listed next: entries and their corresponding kd.
- assayed system: T1, hIL-11Rα (Homo sapiens, UniProt Q14626)
- T1 sequence (Q14626 23-422): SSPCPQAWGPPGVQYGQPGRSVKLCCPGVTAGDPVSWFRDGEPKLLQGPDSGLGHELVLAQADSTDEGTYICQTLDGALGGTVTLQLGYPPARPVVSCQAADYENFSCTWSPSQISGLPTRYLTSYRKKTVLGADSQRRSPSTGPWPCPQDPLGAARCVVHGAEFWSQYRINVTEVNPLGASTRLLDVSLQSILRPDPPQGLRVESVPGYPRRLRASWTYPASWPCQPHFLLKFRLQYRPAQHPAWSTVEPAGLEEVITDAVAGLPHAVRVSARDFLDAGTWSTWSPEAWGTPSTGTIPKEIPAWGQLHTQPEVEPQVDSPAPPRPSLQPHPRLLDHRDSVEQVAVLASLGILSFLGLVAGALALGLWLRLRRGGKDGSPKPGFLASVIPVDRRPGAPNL
- experiment: Kinetic binding analysis by biolayer interferometry (protein G biosensors, Octet RED96e)

Req: Give the measured kd for mAb11: anti-IL-11Rα antibody, human IgG4 (S228P), kappa; VH SEQ ID NO: 213, VL SEQ ID NO: 214 (antibody, V domains shown, IgG4 S228P kappa constant regions; mAb11 VH Chain; mAb11 VL Chain) VH: EVQLLESGGGLVQPGGSLRLSCAASGFTFSWYSMTWVRQAPGKGLEWVSSIVDYGDLTQYADSVKGRFTISRDNSKNTLYLQMNSLRAEDTAVYYCAKGPGWGSFDLWGRGTLVTVSS VL: DIQMTQSPSSLSASVGDRVTITCQASQDINNYLNWYQQKPGKAPKLLIYDASNLQTGVPSRFSGSGSGTDFTFTISSLQPEDIATYYCQQHESQSPTFGPGTKVDIK
Resp: 0.0181 s⁻¹

Req: Give the measured kd for mAb8: anti-IL-11Rα antibody, human IgG4 (S228P), kappa; VH SEQ ID NO: 207, VL SEQ ID NO: 208 (antibody, V domains shown, human IgG4 S228P and kappa constant regions; mAb8 VH Chain; mAb8 VL Chain) VH: EVQLLESGGGLVQPGGSLRLSCAASGFTFSSYAMSWVRQAPGKGLEWVSSIVPYGDLTQYADSVKGRFTISRDNSKNTLYLQMNSLRAEDTAVYYCAKGPGWGSFDLWGRGTLVTVSS VL: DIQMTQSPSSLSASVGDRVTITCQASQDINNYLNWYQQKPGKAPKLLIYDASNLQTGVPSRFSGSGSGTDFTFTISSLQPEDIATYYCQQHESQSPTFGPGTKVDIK
Resp: <1e-07 s⁻¹

Req: Give the measured kd for mAb14: anti-IL-11Rα antibody, human IgG4 (S228P), kappa; VH SEQ ID NO: 219, VL SEQ ID NO: 220 (antibody, V domains shown, IgG4 S228P kappa constant regions; mAb14 VH Chain; mAb14 VL Chain) VH: EVQLLESGGGLVQPGGSLRLSCAASGFTFSWYSMTWVRQAPGKGLEWVSSIVPYGDLTQYAESVKGRFTISRDNSKNTLYLQMNSLRAEDTAVYYCAKGPGWGSFDLWGRGTLVTVSS VL: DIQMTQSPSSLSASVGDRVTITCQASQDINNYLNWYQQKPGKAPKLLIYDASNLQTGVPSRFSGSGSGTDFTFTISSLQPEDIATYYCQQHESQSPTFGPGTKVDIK
Resp: <1e-07 s⁻¹

Req: Give the measured kd for mAb6: anti-IL-11Rα antibody, human IgG4 (S228P), kappa; VH SEQ ID NO: 203, VL SEQ ID NO: 204 (antibody, V domains shown, human IgG4 S228P and kappa constant regions; mAb6 VH Chain; mAb6 VL Chain) VH: EVQLLESGGGLVQPGGSLRLSCAASGFTFSWYSMTWVRQAPGKGLEWVSSIVPYGDLTQYADSVKGRFTISRDNSKNTLYLQMNSLRAEDTAVYYCAKGPGWGSFDLWGRGTLVTVSS VL: DIQMTQSPSSLSASVGDRVTITCQASQDINNYLNWYQQKPGKAPKLLIYDASNLQTGVPSRFSGSGSGTDFTFTISSLQPEDIATYYCQQHEFQSPTFGPGTKVDIK
Resp: <1e-07 s⁻¹
